# TARGET_DESC: UniProtKB Q12884
# Sequence (Q12884 39-757): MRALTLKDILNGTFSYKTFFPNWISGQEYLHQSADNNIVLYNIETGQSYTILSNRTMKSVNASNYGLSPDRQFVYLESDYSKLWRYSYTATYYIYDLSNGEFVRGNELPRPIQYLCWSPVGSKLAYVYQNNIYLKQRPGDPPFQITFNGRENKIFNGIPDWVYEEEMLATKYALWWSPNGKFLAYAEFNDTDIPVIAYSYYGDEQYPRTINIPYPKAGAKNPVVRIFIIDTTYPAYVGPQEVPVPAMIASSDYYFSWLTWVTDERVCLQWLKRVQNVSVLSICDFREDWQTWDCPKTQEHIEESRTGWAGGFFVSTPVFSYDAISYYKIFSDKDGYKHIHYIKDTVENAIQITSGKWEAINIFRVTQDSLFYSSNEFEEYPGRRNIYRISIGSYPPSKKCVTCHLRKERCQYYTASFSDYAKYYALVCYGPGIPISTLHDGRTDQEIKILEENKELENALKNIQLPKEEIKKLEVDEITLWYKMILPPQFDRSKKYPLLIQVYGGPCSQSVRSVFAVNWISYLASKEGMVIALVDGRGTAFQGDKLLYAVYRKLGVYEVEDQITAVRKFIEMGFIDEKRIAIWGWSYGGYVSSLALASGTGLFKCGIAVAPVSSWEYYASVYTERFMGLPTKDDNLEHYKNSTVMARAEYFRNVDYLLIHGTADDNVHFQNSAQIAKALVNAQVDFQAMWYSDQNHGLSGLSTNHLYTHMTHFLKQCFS
# ASSAY_NAME: hFAP binding assay (surface plasmon resonance)
# CONDITION_INFO: SPR, 20° C., single cycle kinetics
Please use condition met whenever hFAP Binding assay k(off) is not below 0.0001 s⁻¹, and condition not met whenever it is.

MOLECULE	LABEL_VALUE
CS(=O)(=O)C[C@H]1CN(c2ccc3nccc(C(=O)NCC(=O)N4CSC[C@H]4C#N)c3c2)CCO1 [Example 92]	condition met
N#C[C@@H]1CSCN1C(=O)CNC(=O)c1ccnc2ccc(N3CCC[C@H](F)C3)cc12 (mixture of isomers) [Example 40]	condition not met
CC1(C)CN(c2ccc3nccc(C(=O)NCC(=O)N4CSC[C@H]4C#N)c3c2)C1 [Example 22]	condition not met
CC(C)C1CN(c2ccc3nccc(C(=O)NCC(=O)N4CSC[C@H]4C#N)c3c2)C1 [Example 148]	condition met
N#C[C@@H]1CSCN1C(=O)CNC(=O)c1ccnc2ccc(N3CCO[C@H](C(F)(F)F)C3)cc12 [Example 74]	condition met
C[C@@H]1COC[C@@H](C)N1c1ccc2nccc(C(=O)NCC(=O)N3CSC[C@H]3C#N)c2c1 [Example 105]	condition not met
CC1(CS(C)(=O)=O)CN(c2ccc3nccc(C(=O)NCC(=O)N4CSC[C@H]4C#N)c3c2)C1 [Example 188]	condition not met
N#C[C@@H]1CSCN1C(=O)CNC(=O)c1ccnc2ccc(N3CCOCC34CCC4)cc12 [Example 104]	condition not met
N#C[C@@H]1CSCN1C(=O)CNC(=O)c1ccnc2ccc(N3C[C@@H](F)[C@H](F)C3)cc12 [Example 214]	condition not met
N#C[C@@H]1CSCN1C(=O)CNC(=O)c1ccnc2ccc(-c3ccc(C(F)F)nc3)cc12 [Example 169]	condition met
N#C[C@@H]1CSCN1C(=O)CNC(=O)c1ccnc2ccc(N3C4CCCC3COC4)cc12 [Example 86]	condition not met
N#C[C@@H]1CSCN1C(=O)CNC(=O)c1c(F)cnc2ccc(N3CCOCC3)cc12 [Example 2]	condition met
CC(=O)N1CC2(C1)CN(c1ccc3nccc(C(=O)NCC(=O)N4CSC[C@H]4C#N)c3c1)C2 [Example 184]	condition not met
CCOC1(C)CN(c2ccc3nccc(C(=O)NCC(=O)N4CSC[C@H]4C#N)c3c2)C1 [Example 152]	condition not met
N#C[C@@H]1CSCN1C(=O)CNC(=O)c1ccnc2ccc(-c3ccnc(F)c3)cc12 [Example 124]	condition met
C[C@H]1CCN(c2ccc3nccc(C(=O)NCC(=O)N4CSC[C@H]4C#N)c3c2)C1 [Example 54]	condition met
N#C[C@@H]1CSCN1C(=O)CNC(=O)c1ccnc2ccc(N3CC(N4CCOCC4)C3)cc12 [Example 122]	condition not met
N#C[C@@H]1CSCN1C(=O)CNC(=O)c1ccnc2ccc(N3CC4CCCC4C3)cc12 (stereo partly drawn) [Example 53]	condition not met
CC(C)n1nccc1-c1ccc2nccc(C(=O)NCC(=O)N3CSC[C@H]3C#N)c2c1 [Example 197]	condition not met
C[C@H]1CCCN1c1ccc2nccc(C(=O)NCC(=O)N3CSC[C@H]3C#N)c2c1 [Example 65]	condition met
N#C[C@@H]1CSCN1C(=O)CNC(=O)c1ccnc2ccc(N3C[C@@H]4[C@H](C3)[C@H]4C(F)(F)F)cc12 [Example 208]	condition met
COCC[C@@H]1COCCN1c1ccc2nccc(C(=O)NCC(=O)N3CSC[C@H]3C#N)c2c1 [Example 95]	condition not met
N#C[C@@H]1CSCN1C(=O)CNC(=O)c1ccnc2ccc(N3CCOC(F)(F)C3)cc12 [Example 4]	condition not met
C[C@@H]1CCN(c2ccc3nccc(C(=O)NCC(=O)N4CSC[C@H]4C#N)c3c2)C1 [Example 55]	condition met
CC1(O)CCN(c2ccc3nccc(C(=O)NCC(=O)N4CSC[C@H]4C#N)c3c2)CC1 [Example 190]	condition not met
C[C@@H]1CN(c2ccc3nccc(C(=O)NCC(=O)N4CSC[C@H]4C#N)c3c2)CCCO1 [Example 64]	condition met
C[C@H]1OCCN(c2ccc3nccc(C(=O)NCC(=O)N4CSC[C@H]4C#N)c3c2)[C@H]1C [Example 81]	condition not met
N#C[C@@H]1CSCN1C(=O)CNC(=O)c1ccnc2ccc(N3CC4CC(C3)O4)cc12 [Example 77]	condition not met
N#C[C@@H]1CSCN1C(=O)CNC(=O)c1ccnc2ccc(N3CC(OC(F)(F)F)C3)cc12 [Example 132]	condition met
CCC1(O)CCN(c2ccc3nccc(C(=O)NCC(=O)N4CSC[C@H]4C#N)c3c2)CC1 [Example 189]	condition not met
N#C[C@@H]1CSCN1C(=O)CNC(=O)c1ccnc2ccc(N3CCC(F)(c4ccccc4)CC3)cc12 [Example 223]	condition not met
N#C[C@@H]1CSCN1C(=O)CNC(=O)c1ccnc2ccc(-c3cnn(C4CC4)c3)cc12 [Example 170]	condition met
